test system: Calu-3; assay: cell viability relative to DMSO; higher = less toxic; conditions: 72 h; 1000 nM
Quantity kind: cell viability (%)
Provide the reading as a plain figure in %.

Some entries whose results are on file:
Compound	Unit label	Recorded result
Nc1ccc(C(=O)NCC(=O)O)cc1	%	106
Cc1ccc(C23CNCC2C3)cc1 (centres undefined)	%	105
CN1C(CSCC(F)(F)F)Nc2cc(Cl)c(S(N)(=O)=O)cc2S1(=O)=O (centres undefined) [polythiazide]	%	101
O=C(CCCCC(=O)Nc1c(I)cc(I)c(C(=O)O)c1I)Nc1c(I)cc(I)c(C(=O)O)c1I [iodipamide]	%	101
CCCc1c(OCCCCc2nnn[nH]2)ccc(C(C)=O)c1O	%	102
COc1cc(OC)c(/C=C2/C(=O)Nc3ccccc32)c(OC)c1	%	96.7
Cc1cnc(CNC(=O)c2c(=O)c3ccc(N4CCCN(C)CC4)nc3n3c2sc2ccccc23)cn1	%	100
CCOc1nc2cccc(C(=O)O)c2n1Cc1ccc(-c2ccccc2-c2noc(=O)[nH]2)cc1	%	93

Shift focus to the following entry.
Q: Endpoint output: cell viability of NC(=O)c1ccc2[nH]ccc2c1 . Value?
Ans: 99.6

Cited source: the supplement of paper PMC13380429
